Biological target: UniProtKB Q9BQF6
Sequence (Q9BQF6 whole entry): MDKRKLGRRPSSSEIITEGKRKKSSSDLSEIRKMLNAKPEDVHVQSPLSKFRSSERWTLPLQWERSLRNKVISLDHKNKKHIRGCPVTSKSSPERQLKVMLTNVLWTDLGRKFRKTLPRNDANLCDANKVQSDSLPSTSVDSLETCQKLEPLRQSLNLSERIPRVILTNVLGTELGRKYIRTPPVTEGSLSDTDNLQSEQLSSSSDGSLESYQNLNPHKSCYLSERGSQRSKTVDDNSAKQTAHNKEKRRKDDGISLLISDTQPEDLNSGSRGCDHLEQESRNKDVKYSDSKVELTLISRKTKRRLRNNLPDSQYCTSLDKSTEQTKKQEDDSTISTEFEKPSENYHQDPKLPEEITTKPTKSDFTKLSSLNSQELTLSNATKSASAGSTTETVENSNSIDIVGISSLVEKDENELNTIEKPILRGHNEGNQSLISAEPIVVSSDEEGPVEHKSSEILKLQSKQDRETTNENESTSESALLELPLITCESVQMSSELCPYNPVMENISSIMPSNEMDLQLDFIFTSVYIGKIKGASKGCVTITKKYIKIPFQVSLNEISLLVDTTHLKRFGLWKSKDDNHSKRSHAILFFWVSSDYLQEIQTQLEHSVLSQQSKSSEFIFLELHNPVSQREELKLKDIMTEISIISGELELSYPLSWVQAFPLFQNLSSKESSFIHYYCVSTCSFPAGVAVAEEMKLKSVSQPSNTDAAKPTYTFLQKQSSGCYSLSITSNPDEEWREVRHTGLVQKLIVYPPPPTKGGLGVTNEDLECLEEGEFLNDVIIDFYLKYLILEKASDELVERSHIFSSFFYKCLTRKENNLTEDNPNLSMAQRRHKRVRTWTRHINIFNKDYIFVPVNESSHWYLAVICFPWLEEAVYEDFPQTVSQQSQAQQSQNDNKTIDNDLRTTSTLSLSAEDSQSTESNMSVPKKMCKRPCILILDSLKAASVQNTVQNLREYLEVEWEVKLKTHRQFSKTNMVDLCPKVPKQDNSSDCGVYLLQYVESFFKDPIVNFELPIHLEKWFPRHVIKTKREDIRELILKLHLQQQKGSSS
Type: functional
Calls of active or inactive are those of the source.
Each item that follows carries a reported IC50.

compound=O=C1/C(=C\c2ccc(O)cc2)SC(=S)N1Cc1ccccc1 measured="16 µM (active)"
compound="COc1cc2c(cc1OC)-c1c(OC)c(OC)cc3c1C(C2)N(C)CC3 (configuration not stated)" measured="4.63 µM (active)"

Shift focus to the following entry.
(Q) Supply reported IC50 belonging to this compound: COc1cc(OC)c(NC2=CC(=O)C(=O)c3ccccc32)cc1Cl
(A) 4.56 µM (active)

====

Target: Adenosylmethionine-8-amino-7-oxononanoate aminotransferase (Mycobacterium tuberculosis)
Sequence (P9WQ81 whole entry): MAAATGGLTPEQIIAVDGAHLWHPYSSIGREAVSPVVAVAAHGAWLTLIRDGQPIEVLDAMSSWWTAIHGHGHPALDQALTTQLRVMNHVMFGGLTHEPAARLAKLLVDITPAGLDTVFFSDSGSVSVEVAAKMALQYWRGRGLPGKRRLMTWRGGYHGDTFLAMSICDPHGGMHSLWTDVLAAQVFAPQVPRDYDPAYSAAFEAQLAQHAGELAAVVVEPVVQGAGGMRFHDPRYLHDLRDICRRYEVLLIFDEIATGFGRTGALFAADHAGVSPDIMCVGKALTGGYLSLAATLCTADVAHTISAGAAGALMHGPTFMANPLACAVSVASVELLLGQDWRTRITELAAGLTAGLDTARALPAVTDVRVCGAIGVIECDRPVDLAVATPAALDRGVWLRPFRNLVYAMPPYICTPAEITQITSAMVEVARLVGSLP
Test: Mycobacterium tuberculosis BioA enzyme inhibitor Measured in Biochemical System Using Plate Reader - 2163-02_Inhibitor_Dose_CherryPick_Activity.
Assay type: functional, Mycobacterium tuberculosis UT205
The source made the active and inactive calls.
metric: AC50

# example entries with known answers
compound="Cc1cccc(-c2ccc3c(c2)C2CC3CCN2)c1 (centres undefined)" measured="4.64 µM (active)"
compound=O=C(Nc1ccccc1)N1CCN(Cc2ccc3c(c2)OCO3)CC1 measured="2.63 µM (active)"
compound=O=C(C1CCOCC1)N1CC[C@@H]2[C@H]1c1cc(Br)ccc1N[C@@H]2CO measured="4.59 µM (active)"

Shift focus to the following entry.
(Q) Supply reported AC50 belonging to this compound: CCc1c(C)nc2ncnn2c1Nc1ccc(C#N)c(Cl)c1
(A) 10.5 µM (active)

====

Biological target: Tumor necrosis factor (Homo sapiens, UniProt P01375)
Sequence (P01375 whole entry): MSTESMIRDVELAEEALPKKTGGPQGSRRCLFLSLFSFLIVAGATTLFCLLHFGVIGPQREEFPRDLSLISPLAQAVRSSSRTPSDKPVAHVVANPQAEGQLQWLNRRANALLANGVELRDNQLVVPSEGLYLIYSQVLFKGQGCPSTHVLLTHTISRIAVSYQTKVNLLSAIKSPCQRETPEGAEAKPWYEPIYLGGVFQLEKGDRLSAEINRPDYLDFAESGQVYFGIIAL
Test: analog potency on TNFa NF-kB signaling – cell-based, revised, SAR follow-up (AID 2337)
Assay type: functional
Active and inactive are the calls of the source.
Pick one: active, inactive

(Q) Dear colleague, could you share the recorded outcome for Oc1nc(/C=C/c2ccc(Cl)cc2Cl)cc(C(F)(F)F)n1 when you have a moment?
(A) active

(Q) Dear colleague, could you share the recorded outcome for COc1ccccc1CNc1ncnc2sccc12 when you have a moment?
(A) active

(Q) Dear colleague, could you share the recorded outcome for Cc1cccc(-n2ncc3c2CCCC3NC(=O)C2(C(N)=O)CC2)c1C (centres undefined) when you have a moment?
(A) active

(Q) Dear colleague, could you share the recorded outcome for Nc1nc2ccccc2n1S(=O)(=O)c1ccccc1 when you have a moment?
(A) inactive

====

Target: Streptokinase A (Streptococcus pyogenes serotype M1)
Sequence (P10520 whole entry): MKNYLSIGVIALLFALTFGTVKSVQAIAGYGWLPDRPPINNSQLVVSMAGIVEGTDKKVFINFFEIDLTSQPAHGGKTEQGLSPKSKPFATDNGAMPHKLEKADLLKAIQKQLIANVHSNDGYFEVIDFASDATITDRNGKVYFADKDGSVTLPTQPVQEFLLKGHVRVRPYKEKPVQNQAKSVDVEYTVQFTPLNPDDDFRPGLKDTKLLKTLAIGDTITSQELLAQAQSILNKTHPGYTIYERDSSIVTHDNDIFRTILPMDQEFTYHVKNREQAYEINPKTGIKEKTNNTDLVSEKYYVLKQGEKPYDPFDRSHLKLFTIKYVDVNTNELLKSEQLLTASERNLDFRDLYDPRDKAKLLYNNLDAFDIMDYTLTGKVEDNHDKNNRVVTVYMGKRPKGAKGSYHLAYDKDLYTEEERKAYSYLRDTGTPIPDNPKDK
Assay: viability-normalized secreted streptokinase activity reduction – plasminogen activation absorbance, OD405, dose response (AID 1914);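 further: secreted streptokinase activity via plasminogen activation per viability signal from cell pellet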
Type: functional, Streptococcus pyogenes M1 GAS
The source made the active and inactive calls.
Each item that follows carries a reported EC50.

# example entries with known answers
compound=O=[N+]([O-])c1cc(S(=O)(=O)C(F)(F)F)ccc1Sc1nc2ccccc2[nH]1 metric=EC50 measured="> 150 µM (not active)"
compound=COc1ccc(-c2sc3ccccc3c2C#CC2(O)CCCCC2)cc1 metric=EC50 measured="6.81 µM (active)"
compound=O=C(CSc1nc(-c2ccc(Cl)cc2)nc(=O)[nH]1)Nc1cccc(Cl)c1 metric=EC50 measured="4.65 µM (active)"
compound=CCn1c(C)nc2cc(C(=O)NNC(=S)NC(=O)c3ccc(OC)cc3)ccc21 metric=EC50 measured="> 150 µM (not active)"
compound=Cc1ccc(-n2nnnc2SCC(=O)c2cc(C)n(-c3cc(C)on3)c2C)c(C)c1 metric=EC50 measured="89.2 µM (active)"

(Q) Supply reported EC50 belonging to this compound: CC(C)c1ccc(-c2cc(C(=O)N3N=C(C(F)F)CC3(O)C(F)F)c3ccccc3n2)cc1 (stereo not given)
(A) > 150 µM (not active)

(Q) Supply reported EC50 belonging to this compound: Cc1cc(NC(=O)c2cnccn2)no1
(A) > 150 µM (not active)
